Data credit: PubChem BioAssay AID1845212

tested on: NCI-H719 tumor spheroids, viability; experiment: Anticancer human tumor NCI-H719 cell line growth inhibition; details: second compound 31.6 µM; first compound 0.949 µM; active compounds read low; spheroids with HUVEC and MSC;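 note: spheroids exposed to compounds for seven days; percent viability relative to DMSO vehicle control as 100%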
Catalogue of viability, T/C values
Kindly answer with a numeric value in %, unit omitted.

INSERT INTO assay_data (molecule, value) VALUES
  ('Cn1ncnc1[C@H]1c2n[nH]c(=O)c3cc(F)cc(c23)N[C@@H]1c1ccc(F)cc1 + Cn1nnc2c(C(N)=O)ncn2c1=O', 7.26);

For O=C(c1cc(Cc2n[nH]c(=O)c3ccccc23)ccc1F)N1CCN(C(=O)C2CC2)CC1 + Cn1nnc2c(C(N)=O)ncn2c1=O , what is its reported viability, T/C?
34.1

For Cc1sc2c(c1C)C(c1ccc(Cl)cc1)=NC(CC(=O)Nc1ccc(O)cc1)c1nnc(C)n1-2 (centres undefined) + Cn1nnc2c(C(N)=O)ncn2c1=O , what is its reported viability, T/C?
3.77

For CNCc1ccc(-c2cc(-c3nc(-c4ccc(S(=O)(=O)C(C)C)cc4)cnc3N)on2)cc1 + Cn1nnc2c(C(N)=O)ncn2c1=O , what is its reported viability, T/C?
8.28
